# experimental-target: GST-tagged truncated LRRK2 (Homo sapiens)
# Construct: GST-tagged truncated LRRK2 from Invitrogen (Cat # PV4874); GST; purchased Invitrogen PV4874
# procedure-summary: LRRK2 Assay, Format 2 (Lantha Screen), WT
# Assay type: biochemical
# test-conditions: geometric mean of 2-4 determinations unless otherwise indicated (a: >=5; b: single determination)
pIC50: −log10 of the molar value. Counter-ions that a name gives are not always drawn.
outcome-measure: pIC50

Use the examples below as a reference point.
>>> data_value("C[C@@H]1C[C@H](n2c(Cc3cnccn3)nc3cnc4ccc(C#N)cc4c32)CCO1 [Example 98, formate salt]")
8.12
>>> data_value("C[C@@H]1C[C@H](n2c(Cc3ccc4nnnn4n3)nc3cnc4ccc(Cl)cc4c32)CCO1")
8.17

I. C[C@@H]1C[C@H](n2c(Cc3cn4ncsc4n3)nc3cnc4ccc(C#N)cc4c32)CCO1
II. C[C@@H]1C[C@H](n2c(Cn3cccn3)nc3cnc4ccc(Cl)cc4c32)CCO1 [Example 130, formate salt]
Task for the reader: decide whether I or II has the larger pIC50. Answer with the label corresponding to your selection.
I
(I: 8.69, II: 8.46)

----------
# experimental-target: GST-tagged truncated LRRK2 (Homo sapiens, UniProt Q5S007)
# Construct: GST-tagged truncated LRRK2 from Invitrogen (Cat # PV4874); GST; purchased Invitrogen PV4874
# Sequence (Q5S007 970-2527 limits assumed): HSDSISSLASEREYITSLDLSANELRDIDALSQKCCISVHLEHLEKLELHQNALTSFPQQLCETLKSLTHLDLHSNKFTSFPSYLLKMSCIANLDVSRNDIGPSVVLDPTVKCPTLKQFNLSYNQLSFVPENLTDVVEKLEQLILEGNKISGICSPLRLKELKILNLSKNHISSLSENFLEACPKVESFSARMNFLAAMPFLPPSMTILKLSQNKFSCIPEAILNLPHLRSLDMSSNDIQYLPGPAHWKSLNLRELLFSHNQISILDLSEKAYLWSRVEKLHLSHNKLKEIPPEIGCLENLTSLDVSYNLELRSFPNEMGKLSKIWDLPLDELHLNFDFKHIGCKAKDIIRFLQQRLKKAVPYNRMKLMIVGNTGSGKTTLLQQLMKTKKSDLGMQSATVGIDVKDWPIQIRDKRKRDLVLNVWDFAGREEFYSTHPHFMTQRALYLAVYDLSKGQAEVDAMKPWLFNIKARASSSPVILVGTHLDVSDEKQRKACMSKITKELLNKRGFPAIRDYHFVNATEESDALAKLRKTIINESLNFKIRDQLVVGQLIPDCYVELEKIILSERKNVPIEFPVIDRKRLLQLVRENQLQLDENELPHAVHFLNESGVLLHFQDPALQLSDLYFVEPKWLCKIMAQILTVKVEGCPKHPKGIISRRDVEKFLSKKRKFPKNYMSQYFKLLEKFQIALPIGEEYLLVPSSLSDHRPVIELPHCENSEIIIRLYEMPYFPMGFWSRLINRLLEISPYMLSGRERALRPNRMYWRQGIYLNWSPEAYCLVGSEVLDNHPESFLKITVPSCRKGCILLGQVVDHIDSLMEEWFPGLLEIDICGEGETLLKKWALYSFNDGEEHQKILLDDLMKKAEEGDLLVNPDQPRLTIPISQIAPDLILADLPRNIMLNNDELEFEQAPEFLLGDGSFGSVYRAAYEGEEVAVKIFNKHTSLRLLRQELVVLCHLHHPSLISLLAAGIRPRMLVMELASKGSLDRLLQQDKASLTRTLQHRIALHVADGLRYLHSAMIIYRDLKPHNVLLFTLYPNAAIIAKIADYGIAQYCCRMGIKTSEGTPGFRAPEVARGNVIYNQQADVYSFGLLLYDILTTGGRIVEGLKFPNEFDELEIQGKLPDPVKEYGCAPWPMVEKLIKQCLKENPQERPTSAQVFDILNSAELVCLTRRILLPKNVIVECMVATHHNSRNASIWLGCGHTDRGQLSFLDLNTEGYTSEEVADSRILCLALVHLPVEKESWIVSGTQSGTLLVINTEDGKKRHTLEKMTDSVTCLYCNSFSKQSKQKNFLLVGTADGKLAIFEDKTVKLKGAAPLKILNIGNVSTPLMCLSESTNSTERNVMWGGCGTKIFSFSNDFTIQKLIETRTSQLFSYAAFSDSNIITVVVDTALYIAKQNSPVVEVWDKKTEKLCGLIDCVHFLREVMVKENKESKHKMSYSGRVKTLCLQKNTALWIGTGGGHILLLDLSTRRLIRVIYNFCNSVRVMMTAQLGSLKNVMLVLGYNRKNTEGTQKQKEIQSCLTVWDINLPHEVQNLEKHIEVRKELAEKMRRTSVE
# procedure-summary: LRRK2 Assay, Format 2 (Lantha Screen), WT
# Format: biochemical
# test-conditions: geometric mean of 2-4 determinations unless otherwise indicated (a: >=5; b: single determination)
pIC50: −log10 of the molar value.
outcome-measure: pIC50

>>> data_value("Cc1cnc(Cc2nc3cnc4ccc(C#N)cc4c3n2C2CCC(F)C2)cn1 (single isomer, unassigned; ent-2) [Example C89]")
7.73
>>> data_value("Cc1cnn(Cc2nc3cnc4ccc(C#N)cc4c3n2[C@H]2CCN(C)C2)c1 [Example 190]")
7.58

1. Cc1cn(Cc2nc3cnc4ccc(Cl)cc4c3n2C2CCC2(F)F)nn1 (stereo not shown) [Example 187]
2. Cc1cc(Cc2nc3cnc4ccc(Cl)cc4c3n2[C@@H]2CCO[C@H](CF)C2)no1 [Example 221]
Hey, between 1 and 2 which has a smaller measured pIC50? Answer with the label corresponding to your selection.
1
(1: 7.55, 2: 8.50)

----------
# experimental-target: GST-tagged truncated LRRK2 (Homo sapiens, UniProt Q5S007)
# Construct: GST-tagged truncated LRRK2 from Invitrogen (Cat # PV4874); GST; purchased Invitrogen PV4874
# procedure-summary: LRRK2 Assay, Format 2 (Lantha Screen), WT
# Type: biochemical
# test-conditions: geometric mean of 2-4 determinations unless otherwise indicated (a: >=5; b: single determination)
pIC50: −log10 of the molar value. Structures can show the parent of a compound that is named as a salt.
outcome-measure: pIC50

Use the examples below as a reference point.
>>> data_value("C[C@@H]1C[C@H](n2c(Cc3csnn3)nc3cnc4ccc(C#N)cc4c32)CCO1")
8.46
>>> data_value("C[C@@H]1C[C@H](n2c(C(F)c3ccon3)nc3cnc4ccc(Cl)cc4c32)CCO1 (single isomer, unassigned) [Example 238]")
8.41
>>> data_value("Cc1cc(Cc2nc3cnc4ccc(C#N)cc4c3n2[C@@H]2CCC[C@@H]2F)no1 (single isomer, unassigned; ent-2) [Example 147]")
7.84

a. Cc1cnn(Cc2nc3cnc4ccc(C#N)cc4c3n2[C@@H]2CCN(C)C2)c1
b. Cc1cc(Cc2nc3cnc4ccc(C#N)cc4c3n2[C@@H]2CCN(C)C2)no1 [Example 213, formate salt]
c. Cc1cc(Cc2nc3cnc4ccc(C#N)cc4c3n2C2CCC(F)(F)C2)no1 (stereo not shown) [Example 246, formate salt]
Given 3 compounds, produce a descending ranking by pIC50. Use the labels to give the requested order.
b, a, c

----------
# experimental-target: GST-tagged truncated LRRK2 (Homo sapiens, UniProt Q5S007)
# Construct: GST-tagged truncated LRRK2 from Invitrogen (Cat # PV4874); GST; purchased Invitrogen PV4874
# procedure-summary: LRRK2 Assay, Format 2 (Lantha Screen), WT
# Type: biochemical
# test-conditions: geometric mean of 2-4 determinations unless otherwise indicated (a: >=5; b: single determination)
pIC50: −log10 of the molar value. Counter-ions that a name gives are not always drawn.
outcome-measure: pIC50

>>> data_value("C[C@@H]1C[C@H](n2c(Cn3nccn3)nc3cnc4ccc(Cl)cc4c32)CCO1 [Example 161, formate salt]")
8.19
>>> data_value("C[C@@H]1C[C@H](n2c(Cc3cnccn3)nc3cnc4ccc(Cl)cc4c32)CCO1 [Example 249, trifluoroacetate salt]")
7.77
>>> data_value("Cc1cnc(Cc2nc3cnc4ccc(C#N)cc4c3n2C2CCOC(C)(C)C2)cn1 (single isomer, unassigned; ent-1)")
7.87
>>> data_value("Cc1nc(Cc2nc3cnc4ccc(C#N)cc4c3n2[C@@H]2CCO[C@H](C)C2)cs1 [Example 234, formate salt]")
7.97
>>> data_value("Cc1ccc(Cc2nc3cnc4ccc(C#N)cc4c3n2[C@@H]2CCO[C@H](C)C2)nc1")
8.07

1. C[C@@H]1C[C@H](n2c(Cc3cn4ccccc4n3)nc3cnc4ccc(Cl)cc4c32)CCO1 [Example 167, trifluoroacetate salt]
2. Cc1cc(Cc2nc3cnc4ccc(C#N)cc4c3n2[C@H]2CC[C@@H](F)C2)no1 [Example 241, formate salt]
Hey, between 1 and 2 which has a smaller measured pIC50? Answer with the label corresponding to your selection.
2
(2: 7.53, 1: 8.08)

----------
# experimental-target: mutant G2019S LRRK2 (Homo sapiens, UniProt Q5S007, G2019S)
# Sequence (Q5S007 970-2527 G2019S limits assumed): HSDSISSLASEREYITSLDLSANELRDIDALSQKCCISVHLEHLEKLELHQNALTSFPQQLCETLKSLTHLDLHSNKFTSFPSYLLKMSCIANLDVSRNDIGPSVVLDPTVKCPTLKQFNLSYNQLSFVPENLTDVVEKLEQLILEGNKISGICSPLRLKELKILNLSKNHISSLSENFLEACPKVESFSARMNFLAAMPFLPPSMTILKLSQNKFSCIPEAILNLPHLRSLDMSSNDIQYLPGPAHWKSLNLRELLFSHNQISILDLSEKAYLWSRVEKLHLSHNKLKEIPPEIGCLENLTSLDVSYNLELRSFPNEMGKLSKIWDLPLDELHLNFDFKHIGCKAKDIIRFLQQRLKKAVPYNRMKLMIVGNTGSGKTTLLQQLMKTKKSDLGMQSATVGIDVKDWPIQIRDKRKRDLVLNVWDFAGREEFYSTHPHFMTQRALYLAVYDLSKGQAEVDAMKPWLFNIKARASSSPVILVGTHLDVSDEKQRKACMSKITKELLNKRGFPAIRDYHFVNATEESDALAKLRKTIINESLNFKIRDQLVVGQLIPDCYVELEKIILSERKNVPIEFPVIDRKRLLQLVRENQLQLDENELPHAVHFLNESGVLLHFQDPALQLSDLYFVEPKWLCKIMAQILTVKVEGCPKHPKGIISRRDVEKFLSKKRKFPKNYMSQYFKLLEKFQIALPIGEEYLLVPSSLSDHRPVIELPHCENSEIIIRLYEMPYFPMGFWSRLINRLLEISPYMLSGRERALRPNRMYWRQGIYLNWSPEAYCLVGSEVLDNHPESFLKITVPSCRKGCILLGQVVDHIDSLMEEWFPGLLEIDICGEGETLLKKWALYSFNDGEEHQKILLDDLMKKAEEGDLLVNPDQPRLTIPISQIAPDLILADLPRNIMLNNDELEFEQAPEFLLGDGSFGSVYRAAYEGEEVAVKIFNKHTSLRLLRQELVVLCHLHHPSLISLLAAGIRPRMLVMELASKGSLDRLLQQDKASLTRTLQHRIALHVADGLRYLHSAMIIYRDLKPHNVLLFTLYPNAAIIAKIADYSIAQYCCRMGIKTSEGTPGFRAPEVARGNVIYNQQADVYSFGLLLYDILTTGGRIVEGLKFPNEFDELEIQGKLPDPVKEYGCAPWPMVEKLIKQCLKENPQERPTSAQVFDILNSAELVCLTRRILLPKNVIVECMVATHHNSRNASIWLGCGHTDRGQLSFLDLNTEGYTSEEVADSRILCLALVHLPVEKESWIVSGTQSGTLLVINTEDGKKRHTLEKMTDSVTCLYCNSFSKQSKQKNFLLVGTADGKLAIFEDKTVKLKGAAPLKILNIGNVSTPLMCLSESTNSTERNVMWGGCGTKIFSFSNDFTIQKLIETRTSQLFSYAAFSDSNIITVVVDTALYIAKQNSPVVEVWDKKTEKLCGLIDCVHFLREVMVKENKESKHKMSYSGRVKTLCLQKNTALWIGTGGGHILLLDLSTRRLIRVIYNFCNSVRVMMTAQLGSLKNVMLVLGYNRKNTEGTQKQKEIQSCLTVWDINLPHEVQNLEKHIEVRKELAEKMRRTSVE
# procedure-summary: LRRK2 Assay, Format 1 (Lantha Screen), G2019S mutant
Structures can show the parent of a compound that is named as a salt.
outcome-measure: IC50 (nM)

>>> data_value("C[C@@H]1C[C@H](n2c(Cc3cc(C4CC4)on3)nc3cnc4ccc(Br)cc4c32)CCO1")
9.17
>>> data_value("Cc1nc2cnc3ccc(C#N)cc3c2n1C1CCOCC1")
191
>>> data_value("CC[C@@H]1C[C@H](n2c(Cc3ccon3)nc3cnc4ccc(C#N)cc4c32)CCO1")
4

P. Cc1cc(Cc2nc3cnc4ccc(Cl)cc4c3n2[C@@H]2CCO[C@H](CC#N)C2)no1 (single isomer, unassigned; ent-1)
Q. Fc1ccc2ncc3nc(Cc4cn5ncsc5n4)n(C4CCOCC4)c3c2c1 [Example 82, trifluoroacetate salt]
Hey, between P and Q which has a smaller measured IC50? Answer with the label corresponding to your selection.
P
(P: 3.78 nM, Q: 16.2 nM)

1. Cc1nc(Cc2nc3cnc4ccc(Cl)cc4c3n2[C@@H]2CCO[C@H](CC#N)C2)no1 (single isomer, unassigned; ent-1)
2. F[C@@H]1CC[C@H](n2c(Cc3ccon3)nc3cnc4ccc(Br)cc4c32)C1 [Example 25, formate salt]
3. CC(C)c1cn(Cc2nc3cnc4ccccc4c3n2C2CCOCC2)nn1
Given 3 compounds, produce a descending ranking by IC50. Use the labels to give the requested order.
3, 2, 1
(3: 72.2 nM, 2: 30.8 nM, 1: 3.65 nM)

----------
# experimental-target: GST-tagged truncated LRRK2 (Homo sapiens)
# Construct: GST-tagged truncated LRRK2 from Invitrogen (Cat # PV4874); GST; purchased Invitrogen PV4874
# procedure-summary: LRRK2 Assay, Format 1 (Lantha Screen), WT
# Type: biochemical
# test-conditions: 100 nM LRRKtide, 50 μM ATP, 1.7 μg/mL LRRK2 enzyme, two hours at room temperature
pIC50: −log10 of the molar value.
outcome-measure: pIC50

>>> data_value("C[C@H]1C[C@@H](n2c(Cc3ccon3)nc3cnc4ccc(Br)cc4c32)CCO1 (single isomer, unassigned) [enantiomer of Example 12]")
6.29

I. C[C@H]1C[C@@H](n2c(Cc3cscn3)nc3cnc4ccc(C#N)cc4c32)CCO1 [enantiomer of Example 57]
II. Cc1nc(Cc2nc3cnc4ccc(Cl)cc4c3n2C2C[C@@H](C)[C@@H](F)C2)no1 (mixture of isomers) [diastereomer of Example 136]
Task for the reader: decide whether I or II has the larger pIC50. Answer with the label corresponding to your selection.
II
(II: 6.81, I: 6.42)

A. COc1ccc2ncc3nc(Cc4cn5ncsc5n4)n([C@H]4CCO[C@@H](C)C4)c3c2c1 [enantiomer of Example 90]
B. C[C@H]1C[C@@H](n2c(Cc3ccon3)nc3cnc4ccc(F)cc4c32)CCO1 [enantiomer of Example 54]
Hey, between A and B which has a smaller measured pIC50? Answer with the label corresponding to your selection.
A

----------
# experimental-target: GST-tagged truncated LRRK2 (Homo sapiens)
# Construct: GST-tagged truncated LRRK2 from Invitrogen (Cat # PV4874); GST; purchased Invitrogen PV4874
# procedure-summary: LRRK2 Assay, Format 1 (Lantha Screen), WT
# Format: biochemical
# test-conditions: Format 1, wild-type LRRK2; geometric mean of 2-4 determinations unless footnoted (a: ≥5 determinations; b: single determination; c: determined on trifluoroacetate salt)
pIC50: −log10 of the molar value. Structures can show the parent of a compound that is named as a salt.
outcome-measure: pIC50

>>> data_value("Cc1cn(Cc2nc3cnc4ccccc4c3n2[C@@H]2CC[C@H](F)C2)nn1 [Example 27, formate salt]")
6.73
>>> data_value("c1ccc2c(c1)ncc1nc(Cc3ccon3)n(C3CCOCC3)c12")
6.82
>>> data_value("c1ccc2c(c1)ncc1nc(Cc3cn4ncsc4n3)n(C3CCOCC3)c12")
7.11
>>> data_value("Cc1nc2cnc3ccccc3c2n1[C@H]1CCO[C@@H](CC#N)C1 (racemic)")
7.73
>>> data_value("CC1(C)CC(n2c(Cn3cc(C(F)(F)F)cn3)nc3cnc4ccc(F)cc4c32)CCO1 (centres unmarked) [Example 81, trifluoroacetate salt]")
6.80
>>> data_value("CC(C)c1cn(Cc2nc3cnc4ccccc4c3n2C2CCOCC2)nn1")
7.20
>>> data_value("c1ccc2c(c1)ncc1nc(Cn3nnc4ccccc43)n(C3CCOCC3)c12")
6.91
>>> data_value("C[C@@H]1C[C@H](n2c(Cc3cn4ncsc4n3)nc3cnc4ccc(Cl)cc4c32)CCO1")
8.36
>>> data_value("Cc1cn2cc(Cc3nc4cnc5ccccc5c4n3C3CCOCC3)nc2s1")
6.90
>>> data_value("C[C@@H]1C[C@H](n2c(Cc3ccon3)nc3cnc4cccnc4c32)CCO1")
7.63

a. O[C@@H]1CCC[C@@H](n2c(Cc3ccon3)nc3cnc4ccccc4c32)C1 (racemic)
b. COc1ccc2ncc3nc(Cn4cc(C)nn4)n([C@@H]4CCO[C@H](C)C4)c3c2c1
Hey, between a and b which has a smaller measured pIC50? Answer with the label corresponding to your selection.
a

I. Cc1nc2cnc3ccc(C#N)cc3c2n1[C@H]1CC[C@@H](F)C1
II. Cc1cnc(Cc2nc3cnc4ccc(Cl)cc4c3n2[C@@H]2CCO[C@H](C)C2)o1
III. C[C@@H]1C[C@H](n2c(Cc3cscn3)nc3cnc4ccc(C#N)cc4c32)CCO1
Given 3 compounds, produce a descending ranking by pIC50. Use the labels to give the requested order.
III, II, I
(III: 8.21, II: 7.79, I: 6.71)
